Ref: the METLIN SMRT retention time set (Domingo-Almenara et al. 2019)

measurement.notes: gradient 5% acetonitrile 3 min, to 50% in 2 min, to 85% in 15 min, held 3 min, 100 µL/min
test.context: column: Zorbax Extend-C18 2.1 x 50 mm; eluents: water / acetonitrile, 0.1% formic acid
quantity.measured: RP-LC retention time (s)
Number in s, nothing else.

// solved cases for RP-LC retention time follow
Asked: Specify RP-LC retention time for Cn1c(C(=O)NCCN2CCCCCC2)cc2c(-c3cccs3)nn(-c3ccccc3)c21 and stop.
Given back: 782

Asked: Give the reported value of RP-LC retention time for this record: Cc1ccc(CNC(=O)c2c(OCC(C)C)cc(=O)n3c2CCCCC3)o1
Given back: 786

Lab note: next compound to report on.
Asked: Provide one value: measured RP-LC retention time of O=C(CN1C(=O)C2CCCCN2c2ccc(C(=O)N3CCCC3)cc21)Nc1ccc2c(c1)OCCO2 (stereo not drawn)
Given back: 779
